Entry source: ChEMBL document CHEMBL1158468

# measurement.target: Corticotropin-releasing factor receptor 1 (Rattus norvegicus, UniProt P35353)
value.type: IC50 (nM)

smi	IC50, nM
CCC(CC)n1cc(Cl)nc(Nc2cc(C)c(OC)cc2C)c1=O	0.8
Cc1cc(C)c(Nc2nc(Cl)cn([C@@H](CO)C3CC3)c2=O)c(C)c1	35
COC[C@@H](C1CC1)n1cc(Cl)nc(Nc2cc(C)c(OC)cc2C)c1=O	0.26
CCN(c1c(Cl)cc(OC)cc1Cl)c1nccn([C@H](C)C2CC2)c1=O	34

[I] CC[C@H](C1CC1)n1cc(Cl)nc(Nc2c(C)cccc2Cl)c1=O
[II] COc1ccc(Nc2nc(C)cn([C@H](C)C3CC3)c2=O)c(C(F)(F)F)n1
[III] CC[C@H](C1CC1)n1cc(Cl)nc(Nc2c(C)cc(Cl)cc2Cl)c1=O
Inquiry: Arrange the 3 entries by IC50 so the values rise. Could you list the labels in the order requested?
Reply text: III, II, I

----------
# measurement.target: Corticotropin-releasing factor receptor 1 (Rattus norvegicus, UniProt P35353)
# Sequence (P35353 whole entry): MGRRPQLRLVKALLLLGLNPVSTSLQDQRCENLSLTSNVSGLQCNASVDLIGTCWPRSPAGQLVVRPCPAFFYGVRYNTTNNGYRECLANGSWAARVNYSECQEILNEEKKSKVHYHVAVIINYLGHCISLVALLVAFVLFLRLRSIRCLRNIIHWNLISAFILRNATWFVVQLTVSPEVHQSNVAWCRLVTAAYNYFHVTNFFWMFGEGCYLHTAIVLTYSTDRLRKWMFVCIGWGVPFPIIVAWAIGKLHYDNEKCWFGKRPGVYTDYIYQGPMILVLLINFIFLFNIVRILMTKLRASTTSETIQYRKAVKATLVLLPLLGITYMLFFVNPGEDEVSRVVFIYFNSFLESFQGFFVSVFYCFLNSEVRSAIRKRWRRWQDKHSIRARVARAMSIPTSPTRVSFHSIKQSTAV
pIC50: −log10 of the molar value.
value.type: pIC50

smi	measurement.target	value.measured
C#Cc1cn([C@H](C)C2CC2)c(=O)c(Nc2ccc(OC)nc2C(F)(F)F)n1	Corticotropin-releasing factor receptor 1 (Rattus norvegicus, UniProt P35353)	8.25

[I] CC[C@H](C1CC1)n1cc(Cl)nc(Nc2ccc(C)cc2C)c1=O
[II] COC[C@H](C1CC1)n1cc(Cl)nc(Nc2cc(C)c(OC)cc2C)c1=O
Inquiry: Select one. Lower pIC50: I or II I would appreciate it if you answered with the label of your choice.
Reply text: I
(I: 8.18, II: 9.54)
